Data provenance is the supplement of paper PMC10567573.

B1: ZNF8 (parent)
chain: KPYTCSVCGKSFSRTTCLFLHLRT

Variants of: B1
Assay: protein stability index of a GFP-peptide fusion (GPS, HEK-293T) (PSI 1-6); higher = more stable;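 note: lentivirally expressed fusions sorted by FACS into six bins by GFP to DsRed ratio, PSI derived from sequencing read proportions per bin multiplied by bin number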
Details: c terminus: a fixed tail appended
endpoint: protein stability index
Provide a numeric answer; units are not to be included.

Worked cases, answers included:
C17K | 2.35
C5S | 1.56
K10W | 2.83
L22C | 2.24
H21Q | 2.28

Now let's try a different one.
Reported protein stability index of P2A : 2.24
